Source: patent US20110300156A1

- systemName: T1, human tissue factor (TF), membrane-bound on cells (human, UniProt P13726 33-295)
- T1 construct: whole, on cells; also called cellular TF
- methodDescription: FACS, MDA-MB-231 cells
- Description: Cells were resuspended in PBS (2×10⁶ cells/ml), put in 96-well V-bottom plates (50 μl/well). 50 μl of serially diluted HuMab in FACS buffer (PBS supplemented with 0.1% BSA and 0.02% Na-azide) was added to the cells and incubated for 30 minutes on ice. […] After 30 minutes on ice (in the dark), cells were washed three times, and specific binding of the HuMabs was detected by flow cytometry on a FACSCalibur (BD Biosciences). […]
recordedEndpoint: log10(EC50) (log10 of the value in nM)

binder	log10(EC50)
anti-TF HuMab 101 (antibody, V domains shown, Human monoclonal antibody from HuMab mice) VH: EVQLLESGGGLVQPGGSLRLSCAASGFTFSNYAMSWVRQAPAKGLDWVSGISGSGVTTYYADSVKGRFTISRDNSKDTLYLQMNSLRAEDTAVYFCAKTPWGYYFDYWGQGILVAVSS VL: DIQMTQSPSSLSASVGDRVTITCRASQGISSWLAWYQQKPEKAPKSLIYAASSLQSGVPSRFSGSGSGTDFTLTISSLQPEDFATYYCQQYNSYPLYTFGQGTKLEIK	-0.07
anti-TF HuMab 025 (antibody, V domains shown, Human monoclonal antibody from HuMab mice) VH: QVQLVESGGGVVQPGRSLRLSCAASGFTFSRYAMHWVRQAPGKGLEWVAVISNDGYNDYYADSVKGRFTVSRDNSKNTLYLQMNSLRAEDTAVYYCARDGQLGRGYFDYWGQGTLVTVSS VL: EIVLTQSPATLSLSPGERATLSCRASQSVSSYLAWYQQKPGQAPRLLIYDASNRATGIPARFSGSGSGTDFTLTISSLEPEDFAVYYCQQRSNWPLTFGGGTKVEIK	-0.16
anti-TF HuMab 087-Lg6 (antibody, V domains shown, Human monoclonal antibody from HuMab mice) VH: EVQLVQSGAEVKKPGESLKISCKGSGYSFTSCWIGWVRQMPGKGLEWMGIIYPGDSDTRYSPSFQGQVTISADKSISTAYLQWSSLKASDTAMYYCARHKLGMDHDAFDIWGQGTMVTVSS VL: DIQMTQSPSSLSASVGDRVTITCRASQGISSWLAWYQQKPEKAPKSLIYAASSLQSGVPSRFSGSGSGTDFTLTISSLQPEDFATYYCQQYNSYPPTFGQGTTVEVK	0.92
anti-TF HuMab 044 (antibody, V domains shown, Human monoclonal antibody from HuMab mice) VH: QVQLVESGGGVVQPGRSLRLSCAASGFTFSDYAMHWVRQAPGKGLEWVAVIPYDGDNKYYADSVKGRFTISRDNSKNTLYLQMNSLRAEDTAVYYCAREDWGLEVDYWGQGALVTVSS VL: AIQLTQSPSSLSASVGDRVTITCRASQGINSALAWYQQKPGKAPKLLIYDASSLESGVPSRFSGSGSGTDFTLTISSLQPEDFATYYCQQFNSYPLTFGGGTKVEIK	-0.06
anti-TF HuMab 111 (antibody, V domains shown, Human monoclonal antibody from HuMab mice) VH: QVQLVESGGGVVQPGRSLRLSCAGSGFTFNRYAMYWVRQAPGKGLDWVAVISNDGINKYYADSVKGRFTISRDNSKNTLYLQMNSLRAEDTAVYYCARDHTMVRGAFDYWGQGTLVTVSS VL: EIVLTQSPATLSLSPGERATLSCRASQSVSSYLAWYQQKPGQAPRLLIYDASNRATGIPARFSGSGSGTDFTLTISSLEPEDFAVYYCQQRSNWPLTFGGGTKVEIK	0.01
